molecular target: PAF receptor (Oryctolagus cuniculus, UniProt G1TEI7); experiment: PAF receptor binding assay: inhibition of specific [3H]C18-PAF binding to rabbit platelet membranes; conditions: 0.6 nM [3H]C18-PAF, 60 min, 22-23 °C, Ki from IC50 (Cheng and Prusoff), read-out: Ki (PAF Receptor Binding Activity)
Sequence (G1TEI7 1-342): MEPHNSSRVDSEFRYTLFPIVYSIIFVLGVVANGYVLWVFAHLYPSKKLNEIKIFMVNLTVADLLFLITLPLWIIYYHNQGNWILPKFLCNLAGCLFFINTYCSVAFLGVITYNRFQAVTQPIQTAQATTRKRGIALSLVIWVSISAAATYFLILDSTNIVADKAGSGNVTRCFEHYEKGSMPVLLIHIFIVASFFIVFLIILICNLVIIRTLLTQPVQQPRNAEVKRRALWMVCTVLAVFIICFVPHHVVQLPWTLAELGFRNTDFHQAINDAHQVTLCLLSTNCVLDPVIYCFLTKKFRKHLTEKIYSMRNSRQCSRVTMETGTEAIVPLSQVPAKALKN
Where a name gives a salt, the structure may show the parent alone.
pKi listing for selected molecules.
Entry type: numeric. Quantity: pKi, the -log10 of concentration in molar units.

Example entries and their recorded answers appear below.
O=C(c1ccccc1)c1cccc2c1ccn2C(=O)C1CSC(c2cccnc2)N1 (stereo not drawn) [Example 7, dihydrochloride]    7.92
CN(C)C(=O)n1cc(C(=O)C2CSC(c3cccnc3)N2C(=O)C(F)(F)F)c2ccc(OCc3ccccc3)cc21 (single isomer, unassigned; isomer 1) [Example 108]    6.60
CN(C)C(=O)n1cc(C(=O)C2CSC(c3cccnc3)N2C=O)c2ccccc21 (stereo not drawn) [Example 91]    7.43
CN(C)C(=O)n1cc(C(=O)C2CSC(c3cccnc3)N2)c2cccc(OCc3ccccc3)c21 (stereo not drawn) [Example 51]    7.89

### Prompt Using the record for CC(C)(C)C(=O)n1cc(C(=O)C2CSC(c3cccnc3)N2)c2ccccc21 (stereo not drawn) [Example 47] , state its measured pKi.
### Response 8.05

### Prompt Using the record for O=C(c1c[nH]c2cc(OCc3cccnc3)ccc12)C1CSC(c2cccnc2)N1 (stereo not drawn) [Example 76] , state its measured pKi.
### Response 7.52

### Prompt Using the record for CN(C)C(=O)n1cc(C(=O)[C@@H]2CS[C@H](c3cccnc3)N2C(=O)C(F)(F)F)c2ccccc21 (relative stereo) [Example 105] , state its measured pKi.
### Response 6.76

### Prompt Using the record for O=C(c1cn(C(=O)N2CCOCC2)c2ccccc12)C1CSC(c2cccnc2)N1 (stereo not drawn) [Example 55] , state its measured pKi.
### Response 8.70

### Prompt Using the record for O=C(C1CSC(c2cccnc2)N1)n1ccc2c(Cl)cccc21 (stereo not drawn) [Example 5, dihydrochloride] , state its measured pKi.
### Response 7.48

### Prompt Using the record for CCS(=O)(=O)n1cc(C(=O)C2CSC(c3cccnc3)N2)c2ccc(OCc3ccccc3)cc21 (stereo not drawn) [Example 73] , state its measured pKi.
### Response 8.10

### Prompt Using the record for O=CN1C(C(=O)c2cn(C(=O)N3CCOCC3)c3ccccc23)CSC1c1cccnc1 (stereo not drawn) [Example 92] , state its measured pKi.
### Response 6.82

### Prompt Using the record for CN(C)C(=O)n1cc(C(=O)[C@@H]2CS[C@@H](c3cccnc3)N2C(=O)C(F)(F)F)c2ccccc21 (relative stereo) [Example 107] , state its measured pKi.
### Response 7.12

###

biological target: PAF receptor (Oryctolagus cuniculus); assay: PAF receptor binding assay: inhibition of specific [3H]C18-PAF binding to rabbit platelet membranes; settings: Ki (PAF Receptor Binding Activity), 0.6 nM [3H]C18-PAF, 60 min, 22-23 °C, Ki from IC50 (Cheng and Prusoff)
Under this convention, condition met denotes Ki strictly below 4 nM and condition not met denotes Ki at or above 4 nM.

Example entries and their recorded answers appear below.
CNC(=O)Cn1cc(C(=O)C2CSC(c3cccnc3)N2)c2ccccc21 (centres unmarked) [Example 117]    condition met
Cc1[nH]c2ccccc2c1C(=O)C1CSC(c2cccnc2)N1 (centres unmarked) [Example 39]    condition not met
O=C(O)Cn1cc(C(=O)C2CSC(c3cccnc3)N2)c2ccccc21 (centres unmarked) [Example 120]    condition not met

### Prompt Is Ki of O=C(C1CSC(c2cccnc2)N1)n1ccc2cccnc21 (centres unmarked) [Example 19] strictly below 4 nM?
### Response condition not met

###

target: PAF receptor (Oryctolagus cuniculus, UniProt G1TEI7); assay: PAF receptor binding assay: inhibition of specific [3H]C18-PAF binding to rabbit platelet membranes; details: 0.6 nM [3H]C18-PAF, 60 min, 22-23 °C, Ki from IC50 (Cheng and Prusoff), read-out: Ki (PAF Receptor Binding Activity)
Structures can show the parent of a compound that is named as a salt.
Ki listing for selected compounds.
Only the number, expressed in µM, is required.

Example entries and their recorded answers appear below.
CN(C)C(=O)n1cc(C(=O)[C@@H]2CSC(c3cccnc3)N2C=O)c2ccccc21 (some centres unmarked)    0.15
O=C(c1cn(S(=O)(=O)c2ccccc2)c2ccccc12)C1CSC(c2cccnc2)N1 (centres unmarked)    0.03
O=CN1C(C(=O)c2c[nH]c3ccccc23)CSC1c1cccnc1 (centres unmarked)    0.27

### Prompt Lab note: record Ki of O=C(c1c[nH]c2c(OCc3ccccc3)cccc12)C1CSC(c2cccnc2)N1 (centres unmarked) tested on PAF receptor (Oryctolagus cuniculus, UniProt G1TEI7).
### Response 0.001

### Prompt Lab note: record Ki of O=C(c1c[nH]c2ccccc12)C1CSC(c2cccnc2)S1 (centres unmarked) tested on PAF receptor (Oryctolagus cuniculus, UniProt G1TEI7).
### Response 1.7

### Prompt Lab note: record Ki of CC(=O)N1C(C(=O)c2cn(C(=O)N(C)C)c3ccccc23)CSC1c1cccnc1 (centres unmarked) tested on PAF receptor (Oryctolagus cuniculus, UniProt G1TEI7).
### Response 5.2

### Prompt Lab note: record Ki of CC(C)(C)OC(=O)n1cc(C(=O)[C@@H]2CS[C@H](c3cccnc3)S2)c2ccccc21 (relative stereo) [Example 29, hydrochloride] tested on PAF receptor (Oryctolagus cuniculus, UniProt G1TEI7).
### Response 0.18

### Prompt Lab note: record Ki of O=C(c1c[nH]c2cc(OCc3ccc(F)cc3)ccc12)C1CSC(c2cccnc2)N1 (centres unmarked) tested on PAF receptor (Oryctolagus cuniculus, UniProt G1TEI7).
### Response 0.003

###

target: PAF receptor (Oryctolagus cuniculus, UniProt G1TEI7); assay: PAF receptor binding assay: inhibition of specific [3H]C18-PAF binding to rabbit platelet membranes; settings: Ki (PAF Receptor Binding Activity), 0.6 nM [3H]C18-PAF, 60 min, 22-23 °C, Ki from IC50 (Cheng and Prusoff)
Counter-ions that a name gives are not always drawn.
Under this convention, true (1) denotes Ki strictly below 8 nM and false (0) denotes Ki at or above 8 nM.

CCOC(=O)Cn1cc(C(=O)C2CSC(c3cccnc3)N2)c2ccccc21 (stereo not drawn)    true (1)
Cc1cccc2c(C(=O)C3CSC(c4cccnc4)N3)c[nH]c12 (stereo not drawn) [Example 25, oxalate]    true (1)
COC(=O)c1ccc2c(C(=O)C3CSC(c4cccnc4)N3)c[nH]c2c1 (stereo not drawn)    false (0)
O=C(C1CSC(c2cccnc2)N1)n1ccc2ccc(F)cc21 (stereo not drawn)    false (0)
CN(C)C(=O)Cn1cc(C(=O)C2CSC(c3cccnc3)N2)c2ccccc21 (stereo not drawn)    true (1)
O=C(C1CSC(c2cccnc2)N1)n1ccc2cc(Cl)ccc21 (stereo not drawn) [Example 9, dihydrochloride]    false (0)

### Prompt Is Ki of CCn1cc(C(=O)C2CSC(c3cccnc3)N2)c2ccccc21 (stereo not drawn) [Example 27, oxalate] strictly below 8 nM?
### Response true (1)

### Prompt Is Ki of O=C(C1CSC(c2cccnc2)N1)n1ccc2ccc(Br)cc21 (stereo not drawn) strictly below 8 nM?
### Response false (0)

###

biological target: PAF receptor (Oryctolagus cuniculus, UniProt G1TEI7); assay: PAF receptor binding assay: inhibition of specific [3H]C18-PAF binding to rabbit platelet membranes; conditions: 0.6 nM [3H]C18-PAF, 60 min, 22-23 °C, Ki from IC50 (Cheng and Prusoff), read-out: Ki (PAF Receptor Binding Activity)
Where a name gives a salt, the structure may show the parent alone.
Ki listing for selected compounds.
Only the number, expressed in nM, is required.

### Prompt Using the record for CC(C)(C)OC(=O)n1cc(C(O)C2CSC(c3cccnc3)N2)c2ccccc21 (centres unmarked) , state its measured Ki.
### Response 43

### Prompt Using the record for O=C(C1CSC(c2cccnc2)N1)n1ccc2ccc(OCc3ccccc3)cc21 (centres unmarked) [Example 18, oxalate] , state its measured Ki.
### Response 52

### Prompt Using the record for CN(C)C(=O)n1cc(C(=O)C2CSC(c3cccnc3)N2)c2ccc(-c3ccccc3)cc21 (centres unmarked) , state its measured Ki.
### Response 4

### Prompt Using the record for O=C(c1c[nH]c2cccc(OCc3ccccc3)c12)C1CSC(c2cccnc2)N1 (centres unmarked) , state its measured Ki.
### Response 13

### Prompt Using the record for CN(C)C(=O)n1cc(C(=O)C2CSC(c3cccnc3)N2)c2ccccc21 (centres unmarked) , state its measured Ki.
### Response 1

###

target: PAF receptor (Oryctolagus cuniculus); assay: PAF receptor binding assay: inhibition of specific [3H]C18-PAF binding to rabbit platelet membranes; conditions: Ki (PAF Receptor Binding Activity), 0.6 nM [3H]C18-PAF, 60 min, 22-23 °C, Ki from IC50 (Cheng and Prusoff)
Where a name gives a salt, the structure may show the parent alone.
Property: pKi
Entry type: numeric. Quantity: pKi, the -log10 of concentration in molar units.

Example entries and their recorded answers appear below.
COC(=O)CCn1cc(C(=O)C2CSC(c3cccnc3)N2)c2ccccc21 (stereo not shown) [Example 118]    8.30
O=C(c1cc2ccccc2[nH]1)C1CSC(c2cccnc2)N1 (stereo not shown) [Example 115, 2-[2-(3-pyridinyl)thiazolid-4-oyl]indole]    6.81
COc1ccc2c(C(=O)C3CSC(c4cccnc4)N3)c[nH]c2c1 (stereo not shown) [Example 83, oxalate]    7.80
O=C(c1cn(CC(F)(F)F)c2ccccc12)C1CSC(c2cccnc2)N1 (stereo not shown) [Example 59]    7.70
O=C(c1c[nH]c2cc(O)ccc12)C1CSC(c2cccnc2)N1 (stereo not shown) [Example 88]    6.82

### Prompt Using the record for O=C(O)CCn1cc(C(=O)C2CSC(c3cccnc3)N2)c2ccccc21 (stereo not shown) [Example 119] , state its measured pKi.
### Response 7.70

### Prompt Using the record for COc1cc2ccn(C(=O)C3CSC(c4cccnc4)N3)c2cc1OC (stereo not shown) [Example 13, dihydrochloride] , state its measured pKi.
### Response 5.62

### Prompt Using the record for Cc1ccc2c(C(=O)C3CSC(c4cccnc4)N3)c[nH]c2c1 (stereo not shown) [Example 80] , state its measured pKi.
### Response 8.52
